Origin of the recorded values: paper PMC3114464

pKd: −log10 of the molar value.
test readout: pKd

Item: C=CC1=C(C)C2=Cc3c(C=C)c(C)c4[n]3[Fe][n]3c(c(C)c(CCC(=O)O)c3=CC3=NC(=C4)C(C)=C3CCC(=O)O)=CC1=N2 | System: IsdB-N2 (C-terminal NEAT domain of IsdB) (Staphylococcus aureus) | pKd: > 6.42
